Test: Cell Proliferation Assay against the TMD8 Cell Line (AID 651645);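 note: cells exposed to compound for 48 h before reading; 100% = DMSO and 0% = 9.2 µM bortezomib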
Details: TMD8 DLBCL cell line proliferation/viability; at 46.1 µM (top of the series) unless noted
Text: One class of targeted therapeutics showing early clinical success in killing of ABC DLBCL lines are small molecule inhibitors of the Bruton tyrosine kinase (BTK) 11. Prior to any combination assays, using an NCATS developed oncology compound library called the Mechanism of Interrogation Plate (MIPE), two well studied ABC DLBCL lines (TMD8 and HBL1) were screened using a cell viability assay (CellTiterGlo) and a 12-point titration series for each single agent. […]
Endpoint Name: viability (% of control) (%)
Use % as the unit, but write only the number.

Some solved entries appear below for comparison.
Compound	viability (% of control), %
COc1cc2ncnc(-n3nc(-c4ccccn4)nc3N)c2cc1OC	1.94
COc1ccc(C2CC(c3ccccc3)=NN2c2ccc(S(N)(=O)=O)cc2)cc1 (configuration not stated)	13.6
CCOC(CN1C(=O)[C@](CC(=O)Nc2ccc(C)cc2)(NC(=O)Nc2ccc(C)cc2)c2ccccc21)OCC	16.8
CC(C)C(=O)Nc1ncc(-c2cc(C(F)F)nn2-c2c(Cl)cccc2Cl)s1	9.91
COc1cc2nc(-c3ccc(N4CCN(C)CC4)cc3)nc(NCCN3CCOCC3)c2cc1OC	1.8
O=C1C(Cl)=C(NCCN2CCOCC2)C(=O)c2ncccc21	3.41

Moving on to the next compound.
Form field viability (% of control), entry "O=C(O)c1ccc(-c2cc3cccnc3c(-c3ccc4nonc4c3)n2)cc1" : 111

Data origin, for the record: PubChem BioAssay (NCATS)
